Reference for the values: patent US20080051419A1

- tested_target: Akt1 (Homo sapiens, UniProt P31749, S473D)
- Construct: The version of Akt used in these studies lacks the pleckstrin homology (PH) domain
- Sequence (P31749 118-480 S473D limits assumed, species assumed): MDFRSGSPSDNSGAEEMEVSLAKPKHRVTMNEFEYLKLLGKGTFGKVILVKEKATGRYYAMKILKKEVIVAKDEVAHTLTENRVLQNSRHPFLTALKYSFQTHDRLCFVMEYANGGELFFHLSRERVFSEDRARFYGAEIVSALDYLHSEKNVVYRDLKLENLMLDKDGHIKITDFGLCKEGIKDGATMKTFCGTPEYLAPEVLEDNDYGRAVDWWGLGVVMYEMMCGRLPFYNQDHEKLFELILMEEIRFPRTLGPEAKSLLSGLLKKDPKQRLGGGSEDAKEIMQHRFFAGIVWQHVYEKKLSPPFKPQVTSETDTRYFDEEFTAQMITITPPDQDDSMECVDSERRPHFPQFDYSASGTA
- assay: Akt1 kinase assay, fluorescence polarization (IMAP)
- Assay type: biochemical
- condition_description: average Akt kinase activity (IC50); read-out: Avg Akt kinase, μM (50% inhibition)
assay_readout: IC50 (µM)

1. Cc1cc(C(=O)NC[C@]2(N)CCN(c3ncnc4[nH]cc(Cl)c34)C2)no1
2. Cc1ccccc1C(=O)NC[C@@]1(N)CCN(c2ncnc3[nH]cc(Cl)c23)C1
3. Cc1c[nH]c2ncnc(N3CC[C@](N)(CNC(=O)c4ccc(F)cc4F)C3)c12
# input With the 3 compounds above, produce a list ordered by ascending IC50. Ranked list of labels, please, in the requested order.
# output 3, 1, 2
(3: 0.000979 µM, 1: 0.00377 µM, 2: 0.01 µM)

1. CCc1c[nH]c2ncnc(N3CC[C@](N)(CNC(=O)c4cccc(F)c4)C3)c12
2. Cc1c[nH]c2ncnc(N3CC[C@](N)(CNC(=O)c4ccccc4)C3)c12
# input Which value of IC50 is smaller, the one for 1 or the one for 2 ? Bench note: the answer is the label of the chosen record.
# output 2
(2: 0.00586 µM, 1: 0.0107 µM)

A. N#Cc1c[nH]c2ncnc(N3CC[C@](N)(CNC(=O)c4ccccc4)C3)c12
B. N[C@]1(CNC(=O)c2cccc(F)c2)CCN(c2ncnc3[nH]cc(Cl)c23)C1
C. N#Cc1c[nH]c2ncnc(N3CC[C@](N)(CNC(=O)c4ccc(Cl)cc4)C3)c12
D. CCc1c[nH]c2ncnc(N3CC[C@@](N)(CNC(=O)c4cc(C)on4)C3)c12
# input Given 4 compounds, produce a descending ranking by IC50. Ranked list of labels, please, in the requested order.
# output A, C, B, D

P. N#Cc1c[nH]c2ncnc(N3CC[C@](N)(CNC(=O)c4ccc(Cl)cc4F)C3)c12
Q. Cc1cccc(F)c1C(=O)NC[C@@]1(N)CCN(c2ncnc3[nH]cc(Cl)c23)C1
R. N#Cc1c[nH]c2ncnc(N3CC[C@](N)(CNC(=O)c4ccc(F)cc4)C3)c12
# input Given 3 compounds, produce a descending ranking by IC50. Ranked list of labels, please, in the requested order.
# output Q, P, R
(Q: 0.029 µM, P: 0.0186 µM, R: 0.00923 µM)

###

- tested_target: Akt1 (Homo sapiens, UniProt P31749, S473D)
- Construct: The version of Akt used in these studies lacks the pleckstrin homology (PH) domain
- assay: Akt1 kinase assay, fluorescence polarization (IMAP)
- Format: biochemical
- condition_description: Table 3; read-out: Avg Akt kinase, μM (50% inhibition)
assay_readout: IC50 (µM)

# example entries with known answers
compound: CCc1c[nH]c2ncnc(N3CC[C@](N)(CNc4cc(C)on4)C3)c12 [Example 1]
tested_target: Akt1 (Homo sapiens, UniProt P31749, S473D)
IC50 / µM: 0.0154
--
compound: Cc1c[nH]c2ncnc(N3CCC(N)(CNc4cccc5c4CCCC5)C3)c12 (stereo not drawn) [Example 35]
tested_target: Akt1 (Homo sapiens, UniProt P31749, S473D)
IC50 / µM: 0.00797

P. N#Cc1c[nH]c2ncnc(N3CCC(N)(CNc4ccc5c(c4)CNCC5)C3)c12 (stereo not drawn) [Example 39]
Q. CN(CC1(N)CCN(c2ncnc3[nH]cc(Cl)c23)C1)c1ccc(Cl)cc1 (stereo not drawn) [Example 55]
R. NC1(CNc2cccc(C(F)(F)F)c2)CCN(c2ccnc3[nH]ccc23)C1 (stereo not drawn) [Example 42]
S. Cc1c[nH]c2ncnc(N3CCC(N)(CNc4ccc(Cl)nn4)C3)c12 (stereo not drawn) [Example 52]
T. Cc1c[nH]c2ncnc(N3CCC(N)(CNc4ccc(Cl)cc4F)C3)c12 (stereo not drawn) [Example 31]
# input Put the items in order so that reported IC50 rises from first to last. Ranked list of labels, please, in the requested order.
# output T, Q, R, S, P

###

- tested_target: Akt1 (Homo sapiens, UniProt P31749, S473D)
- Construct: The version of Akt used in these studies lacks the pleckstrin homology (PH) domain
- assay: Akt1 kinase assay, fluorescence polarization (IMAP)
- Assay type: biochemical
- condition_description: Table 1, concentration bins; read-out: Concentration Range at which exemplary compounds of formula I inhibit Akt kinase activity
assay_readout: IC50

# example entries with known answers
compound: Cc1c[nH]c2ncnc(N3CC[C@](N)(CNC(=O)c4cc(F)ccc4F)C3)c12
assay_readout: IC50
result: 10.1 to 100 nM
--
compound: Cc1c[nH]c2ncnc(N3CCC(N)(CNc4ccc(CC(N)=O)cc4)C3)c12 (centres unmarked)
assay_readout: IC50
result: 10.1 to 100 nM

# input Please give measured IC50 of the following entry: Cc1c[nH]c2ncnc(N3CCC(N)(CNc4ccc(Cl)nn4)C3)c12 (centres unmarked)
# output 10.1 to 100 nM

# input Please give measured IC50 of the following entry: COC(=O)c1ccccc1NCC1(N)CCN(c2ncnc3[nH]cc(C)c23)C1 (centres unmarked)
# output 2.51 to 10 nM

# input Please give measured IC50 of the following entry: COC(=O)c1ccccc1NCC1(N)CCN(c2ncnc3[nH]nc(C)c23)C1 (centres unmarked)
# output 101 to 10000 nM

# input Please give measured IC50 of the following entry: COCCN(CC1(N)CCN(c2ncnc3[nH]cc(C)c23)C1)C(=O)Nc1ccccc1 (centres unmarked)
# output 101 to 10000 nM

# input Please give measured IC50 of the following entry: Cc1c[nH]c2ncnc(N3CCC(N)(CNc4ccccc4C(=O)NCc4ccccc4)C3)c12 (centres unmarked)
# output 101 to 10000 nM

# input Please give measured IC50 of the following entry: CCc1c[nH]c2ncnc(N3CC[C@](N)(CNC(=O)c4cccc(F)c4F)C3)c12
# output 2.51 to 10 nM

###

- tested_target: Akt1 (Homo sapiens, UniProt P31749, S473D)
- Construct: The version of Akt used in these studies lacks the pleckstrin homology (PH) domain
- assay: Akt1 kinase assay, fluorescence polarization (IMAP)
- Assay type: biochemical
- condition_description: Table 3; read-out: Avg Akt kinase, μM (50% inhibition)
- Experimental: The Akt1 kinase assay is based on the measurement of fluorescence polarization using IMAP technology (Molecular Devices Corporation #R8062). […] Plates are read on a Victor Plate Reader with the following settings: CW lamp filter: 544 nm, emission filter: 615 nm. Control values from wells lacking Akt protein are subtracted from the gross readings, and IC50 values are calculated using XLDA.
assay_readout: IC50 (µM)

# example entries with known answers
compound: Cc1c[nH]c2ncnc(N3CCC(N)(CNc4cc(C(F)(F)F)ccc4Oc4ccc(Cl)cc4)C3)c12 (stereo not drawn)
IC50 / µM: 0.00859
--
compound: Cc1c[nH]c2ncnc(N3CCC(N)(CNc4ccccc4C(=O)NCc4ccccc4)C3)c12 (stereo not drawn)
IC50 / µM: 5.29
--
compound: Cc1c[nH]c2ncnc(N3CCC(N)(CNc4ccccc4Oc4ccccc4)C3)c12 (stereo not drawn)
IC50 / µM: 0.0155
--
compound: Cc1c(Cl)cccc1NCC1(N)CCN(c2ncnc3[nH]cc(Cl)c23)C1 (stereo not drawn)
IC50 / µM: 0.002

1. Cc1c[nH]c2ncnc(N3CCC(N)(CNc4cccc(C(F)(F)F)c4F)C3)c12 (stereo not drawn)
2. CCN(CC1(N)CCN(c2ncnc3[nH]cc(C)c23)C1)c1ccccc1 (stereo not drawn)
# input Which value of IC50 is smaller, the one for 1 or the one for 2 ? Bench note: the answer is the label of the chosen record.
# output 1

###

- tested_target: Akt1 (Homo sapiens, UniProt P31749, S473D)
- Construct: The version of Akt used in these studies lacks the pleckstrin homology (PH) domain
- assay: Akt1 kinase assay, fluorescence polarization (IMAP)
- Format: biochemical
- condition_description: Table 1, concentration bins; read-out: Concentration Range at which exemplary compounds of formula I inhibit Akt kinase activity
pIC50: −log10 of the molar value.
Each entry below lists one item and its recorded pIC50 value.

molecule: Cc1c[nH]c2ncnc(N3CCC(N)(CN4CCCc5ccccc54)C3)c12 (stereo not drawn)
tested_target: Akt1 (Homo sapiens, UniProt P31749, S473D)
assay_readout: pIC50
result: 5.00 to 7.00
--
molecule: N#Cc1c[nH]c2ncnc(N3CCC(N)(CNc4ccc(Cl)cc4)C3)c12 (stereo not drawn)
tested_target: Akt1 (Homo sapiens, UniProt P31749, S473D)
assay_readout: pIC50
result: 7.00 to 8.00
--
molecule: N#Cc1n[nH]c2ncnc(N3CCC(N)(CNc4cccc(Cl)c4F)C3)c12 (stereo not drawn)
tested_target: Akt1 (Homo sapiens, UniProt P31749, S473D)
assay_readout: pIC50
result: 7.00 to 8.00
--
molecule: N#Cc1c[nH]c2ncnc(N3CC[C@](N)(CNC(=O)c4ccccc4)C3)c12
tested_target: Akt1 (Homo sapiens, UniProt P31749, S473D)
assay_readout: pIC50
result: 7.00 to 8.00
--
molecule: Cc1c[nH]c2ncnc(N3CC[C@](N)(CNC(=O)c4c(F)cccc4Cl)C3)c12
tested_target: Akt1 (Homo sapiens, UniProt P31749, S473D)
assay_readout: pIC50
result: 7.00 to 8.00

# input Please give measured pIC50 of the following entry: N[C@]1(CNC(=O)c2ccc(Cl)cc2)CCN(c2ncnc3[nH]cc(Cl)c23)C1
# output 8.00 to 8.60

# input Please give measured pIC50 of the following entry: CCN(CC1(N)CCN(c2ncnc3[nH]cc(C)c23)C1)c1ccccc1 (stereo not drawn)
# output 5.00 to 7.00

# input Please give measured pIC50 of the following entry: N#Cc1c[nH]c2ncnc(N3CCC(N)(COc4cccc(C(F)(F)F)c4)C3)c12 (stereo not drawn)
# output 7.00 to 8.00

# input Please give measured pIC50 of the following entry: Cc1c[nH]c2ncnc(N3CCC(N)(CCc4cccc(C(F)(F)F)c4)C3)c12 (stereo not drawn)
# output 5.00 to 7.00
